All figures here come from the Deep4Chem optical property database.

assay: solvent given as SMILES; conditions: in CS(C)=O
absorption maximum of 400 nm or higher: condition met. Under 400 nm: condition not met.

INSERT INTO assay_data (compound, answerlabel) VALUES
  ('Cc1ccccc1/C(C#N)=C/c1ccc(N(C)C)cc1', 'condition not met'),
  ('COc1ccc(NC(=O)C(C(=O)Nc2ccc(OC)cc2)C(c2ccccc2O)c2c(C)[nH]c3ccccc23)cc1 (stereo not given)', 'condition not met'),
  ('Nc1ccc2c(c1)NC(=O)CC(=O)N2', 'condition not met'),
  ('O=C(N/N=C/c1ccccc1O)c1cccc2ccccc12', 'condition not met'),
  ('COc1cc(OC)cc(C2=C3C(C)=C(I)C(C)=[N+]3[B-](F)(F)n3c(/C=C/c4c[nH]c5ccc([N+](=O)[O-])cc45)c(I)c(C)c32)c1', 'condition met'),
  ('COc1cc(OC)cc(C2=C3C(C)=C(I)C(C)=[N+]3[B-](F)(F)n3c(/C=C/c4c[nH]c5ccccc45)c(I)c(C)c32)c1', 'condition met'),
  ('CCN(CC)c1ccc2cc(-c3cn4ccccc4n3)c(=O)oc2c1', 'condition met'),
  ('COc1cc2c(cc1/C=C(\C#N)c1nc3ccccc3s1)c1ccccc1n2C', 'condition met'),
  ('CN(C)c1ccc(/C=C2\CC/C(=C\c3ccc(C#N)cc3)C2=O)cc1', 'condition met'),
  ('CN(C)c1ccc2cc3c(cc2c1)OCCN=C3', 'condition not met'),
  ('CCN(CC)c1cccc(C=O)c1', 'condition not met'),
  ('CC(=O)Nc1ccc(O)cc1', 'condition not met'),
  ('COc1cc2c(cc1/C=C/C1=CC(=C(C#N)C#N)CC(C)(C)C1)c1ccccc1n2C', 'condition met'),
  ('CCN1/C(=C/C=C/C2=[N+](C)c3ccccc3C2(C)C)C(C)(C)c2ccccc21', 'condition met'),
  ('COc1ccc(C2CC(c3ccc(O)cc3)=NN2c2ccc(S(N)(=O)=O)cc2)cc1 (stereo not given)', 'condition not met'),
  ('CN1/C(=C/C=C(/C=C/C2=[N+](C)c3ccccc3C2(C)C)c2cc(F)cc(F)c2)C(C)(C)c2ccccc21', 'condition met'),
  ('N#CC(C#N)=Cc1cn(-c2ccccc2)nc1-c1ccccc1', 'condition not met'),
  ('O=C(O)CCCc1cc(C#Cc2ccccc2)c2ccc3c(C#Cc4ccccc4)cc(C#Cc4ccccc4)c4ccc1c2c34', 'condition met'),
  ('c1ccc2c(-c3nc4sc5ccccc5c4s3)cccc2c1', 'condition not met'),
  ('CN1/C(=C/C=C(/C=C/c2sc3ccccc3[n+]2C)c2ccc(C(F)(F)F)cc2)Sc2ccccc21', 'condition met'),
  ('O=C1c2ccc3c4ccc5c6c(ccc(c7ccc(c2c37)C(=O)N1c1ccncc1)c64)C(=O)N(c1ccncc1)C5=O', 'condition met'),
  ('CCC1=C(C)C(=O)n2c1cc1c(C)c(CCC(=O)OC)c(C)n1c2=O', 'condition met'),
  ('Cc1ccc(N/C=C/C=[NH+]c2ccc(C)cc2)cc1', 'condition not met'),
  ('CCCCOc1ccc(-c2oc3cc4n(c3c2-c2ccc(OCCCC)cc2)[B-](F)(F)[N+]2=Cc3cc5oc(-c6ccc(OCCCC)cc6)c(-c6ccc(OCCCC)cc6)c5n3[B-](F)(F)[N+]2=C4)cc1', 'condition met'),
  ('CCN1c2ccc(/C=N/Nc3ccccn3)cc2Sc2cc(-c3ccc(OC)cc3)ccc21', 'condition not met'),
  ('CN(C)c1ccc2nc(/C=C/c3ccccc3)c(=O)oc2c1', 'condition met'),
  ('Oc1ccc2ccccc2c1C1Nc2cccc3cccc(c23)N1', 'condition not met'),
  ('CCC1=C(C)C2=Cc3c4ccccc4c4n3[B-](c3cc[n+](C)cc3)(Oc3ccccc3-4)[N+]2=C1C=Cc1ccc(OC)cc1 (stereo not given)', 'condition met'),
  ('C[n+]1ccc(/C=C/c2ccc(N(c3ccccc3)c3ccc(/C=C/c4cc[n+](C)cn4)cc3)cc2)nc1', 'condition met'),
  ('N#C/C(=C\c1ccncc1)c1nc(-c2ccccc2)cs1', 'condition not met'),
  ('CCC1=C(C)c2cc3ccccc3c(=O)n2C1=O', 'condition not met'),
  ('CN(C)c1ccc(/C=C/c2cc[n+](C)cc2)cc1', 'condition met'),
  ('N#Cc1cc2ccc(O)cc2oc1=N', 'condition not met'),
  ('CN(C)c1ccc(C2=[N+]3C(=Nc4c(-c5ccc(OCCCCS(=O)(=O)[O-])cc5)cc(-c5ccc(N(C)C)cc5)n4[B-]3(F)F)C(c3ccc(OCCCCS(=O)(=O)[O-])cc3)=C2)cc1', 'condition met'),
  ('COc1cccc2cc(-c3ccc([N+](=O)[O-])cc3)c(=N)oc12', 'condition not met'),
  ('O=S(=O)([O-])c1ccc(O)c2ccccc12', 'condition not met');

* * *

Measured absorption maximum of individual entries
test: solvent given as SMILES; conditions: in Cc1ccccc1
measuredParameter: absorption maximum (nm)

INSERT INTO results (compound, valueunit, measured) VALUES
  ('CC(C)(C)c1ccc2c3c(c4ccc(C(C)(C)C)cc4c2c1)=[N+]1C(=C(c2ccccc2)c2c(Br)c4c5ccc(C(C)(C)C)cc5c5cc(C(C)(C)C)ccc5c4n2[B-]1(F)F)C=3Br', 'nm', 691),
  ('COc1ccc(C2=[N+]3C(=Nc4c(-c5cc(OC)c(OC)c(OC)c5)cc(-c5ccc(OC)cc5)n4[B-]3(F)F)C(c3cc(OC)c(OC)c(OC)c3)=C2)cc1', 'nm', 698),
  ('COc1ccc2c(c1)c1cc(OC)ccc1n2-c1cccc(-n2c3ccc(OC)cc3c3cc(OC)ccc32)c1C#N', 'nm', 391),
  ('N#Cc1ccccc1N1c2ccccc2C(c2ccccc2)(c2ccccc2)c2ccccc21', 'nm', 356),
  ('O=[N+]([O-])c1ccc([N+]2=Cc3ccc4c5c(ccc4c3O[B-]2(c2c(F)c(F)c(F)c(F)c2F)c2c(F)c(F)c(F)c(F)c2F)C=[N+](c2ccc([N+](=O)[O-])cc2)[B-](c2c(F)c(F)c(F)c(F)c2F)(c2c(F)c(F)c(F)c(F)c2F)O5)cc1', 'nm', 549),
  ('Cc1cc(-n2c3ccccc3c3cc4c(cc32)C2c3ccccc3C4c3ccccc32)c(C)cc1-c1nc(-c2ccccc2)nc(-c2ccccc2)n1', 'nm', 345),
  ('F[B-]1(F)OC(c2ccccc2)=Cc2cc(Cl)nc[n+]21', 'nm', 377),
  ('CC(C)(C)c1ccc2c(c1)c1cc(C(C)(C)C)ccc1n2-c1cc(C(=O)c2ccccn2)cc(-n2c3ccc(C(C)(C)C)cc3c3cc(C(C)(C)C)ccc32)c1', 'nm', 394),
  ('CCCCCC(CC)C1(C(CC)CCCCC)c2ccccc2-c2ccc(C#Cc3cc(C#Cc4ccc5c(c4)C(C(CC)CCCCC)(C(CC)CCCCC)c4ccccc4-5)c4ccc5c(C#Cc6ccc7c(c6)C(C(CC)CCCCC)(C(CC)CCCCC)c6ccccc6-7)cc(C#Cc6ccc7c(c6)C(C(CC)CCCCC)(C(CC)CCCCC)c6ccccc6-7)c6ccc3c4c65)cc21 (stereo not given)', 'nm', 488),
  ('CC(C)(C)c1ccc2c(c1)c1cc(C(C)(C)C)ccc1n2-c1cccc2c1Oc1c(-c3nc(-c4ccccc4)nc(-c4ccccc4)n3)cccc1C2(C)C', 'nm', 346),
  ('CC(=O)Nc1ccccc1C(=O)OC1CC(C)CCC1C(C)C (stereo not given)', 'nm', 313),
  ('COc1cc2c(cc1/C=C(\C#N)c1nc3ccccc3s1)c1ccccc1n2C', 'nm', 431),
  ('N#C/C(=N/Nc1ccc(C#N)cc1)c1nc(-c2ccccc2)cs1', 'nm', 401),
  ('c1ccc(-c2nc(-c3ccc(N4c5ccccc5C(c5ccccc5)(c5ccccc5)c5ccccc54)cc3)cc(-c3ccccn3)n2)cc1', 'nm', 371.33),
  ('COc1ccc(-c2nc3c(c4c2-c2ccc(C#N)cc2CC4)-c2ccc(C#N)cc2CC3)cc1', 'nm', 334),
  ('Cc1c(C2=[N+]3C(=Cc4c(C)c5ccccc5n4[B-]3(F)F)c3ccccc32)[nH]c2ccccc12', 'nm', 625),
  ('CC(=O)O[B-]1(OC(C)=O)OC(/C=C/c2ccc(C)cc2)=CC(/C=C/c2ccc(C)cc2)=[O+]1', 'nm', 436),
  ('O=CN1N=C(c2ccc(Br)cc2)C[C@@H]1c1ccccc1', 'nm', 306),
  ('Cc1cc(C)c(B(c2c(C)cc(C)cc2C)c2ccc3ccc4cccc5ccc2c3c45)c(C)c1', 'nm', 399),
  ('CCCC1=Cc2nc1ccc1[nH]c(cc1CCC)c1nc(c(OC(=O)CCCNC(=O)OC(C)(C)C)cc3[nH]c2cc3CCC)C(CCC)=C1', 'nm', 645),
  ('CCOc1cc2c(cc1/C=C/C1=CC(=C(C#N)C#N)CC(C)(C)C1)c1ccccc1n2CC', 'nm', 474),
  ('O=P1(c2ccccc2)c2ccc(N3c4ccccc4Sc4ccccc43)cc2-c2cc(N3c4ccccc4Sc4ccccc43)ccc21', 'nm', 422),
  ('Cc1ccc(N(c2ccc(C)cc2)c2ccc3c4cccc5c(N(c6ccc(C)cc6)c6ccc(C)cc6)ccc(c6cccc2c63)c54)cc1', 'nm', 507),
  ('Cn1c(=O)c(/N=N/c2ccc(/N=N/c3ccc(S(=O)(=O)O)cc3)cc2)c(O)c2ccccc21', 'nm', 458),
  ('CCCOc1ccc(/C=C/C=C/C=C/c2ccc([N+](=O)[O-])cc2)cc1', 'nm', 420),
  ('O=[N+]([O-])c1ccc(F)cc1C1CC(c2cccc3ccccc23)=NN1c1ccccc1 (stereo not given)', 'nm', 368),
  ('Fc1c(F)c(-n2c3ccccc3c3ccccc32)c(F)c(F)c1/C=C/c1ccc(C(=C(c2ccccc2)c2ccccc2)c2ccccc2)cc1', 'nm', 367),
  ('Cc1c(-c2ccc(N3c4ccccc4C(C)(C)c4ccccc43)cc2)ncnc1-c1ccc(N2c3ccccc3C(C)(C)c3ccccc32)cc1', 'nm', 367.5),
  ('COc1ccc2c(c1)-c1nc(-c3ccccc3)c3ccccc3[n+]1[B-](F)(F)O2', 'nm', 434),
  ('CC1=[N+]2C(=C(c3c4ccccc4c(C)c4ccccc34)c3ccc(C)n3[B-]2(F)F)C=C1', 'nm', 519);
